Molecular target: glucocorticoid receptors (GR) in SW1353/MMTV-5 cells (Homo sapiens)
Construct: contains endogenous glucocorticoid receptors; endogenous in cells
Experiment: GR functional assay using SW1353/MMTV-5 cells (MMTV-luciferase reporter)
Entries and their Ki values follow.

| testSmiles | systemTested | Ki |
| --- | --- | --- |
| COC(=O)[C@]12Cc3cnn(-c4ccc(F)cc4)c3C=C1CCN(S(=O)(=O)c1ccc(N3CCOCC3)nc1)C2 | glucocorticoid receptors (GR) in SW1353/MMTV-5 cells (Homo sapiens) | > 50 nM |

# Ki (compound: CCOC(=O)[C@]12Cc3cnn(-c4ccc(F)cc4)c3C=C1CCN(S(=O)(=O)c1ccc(N3CCOCC3)nc1)C2 ) is 10 to 50 nM

Entry COC[C@]12Cc3cnn(-c4ccc(F)cc4)c3C=C1CCN(S(=O)(=O)c1ccnc(N3CC[C@H](O)C3)c1)C2 , Ki reported as > 50 nM

====

Biological target: glucocorticoid receptors (GR) in SW1353/MMTV-5 cells (Homo sapiens, UniProt P04150)
Construct: contains endogenous glucocorticoid receptors; endogenous in cells
Sequence (P04150 1-777): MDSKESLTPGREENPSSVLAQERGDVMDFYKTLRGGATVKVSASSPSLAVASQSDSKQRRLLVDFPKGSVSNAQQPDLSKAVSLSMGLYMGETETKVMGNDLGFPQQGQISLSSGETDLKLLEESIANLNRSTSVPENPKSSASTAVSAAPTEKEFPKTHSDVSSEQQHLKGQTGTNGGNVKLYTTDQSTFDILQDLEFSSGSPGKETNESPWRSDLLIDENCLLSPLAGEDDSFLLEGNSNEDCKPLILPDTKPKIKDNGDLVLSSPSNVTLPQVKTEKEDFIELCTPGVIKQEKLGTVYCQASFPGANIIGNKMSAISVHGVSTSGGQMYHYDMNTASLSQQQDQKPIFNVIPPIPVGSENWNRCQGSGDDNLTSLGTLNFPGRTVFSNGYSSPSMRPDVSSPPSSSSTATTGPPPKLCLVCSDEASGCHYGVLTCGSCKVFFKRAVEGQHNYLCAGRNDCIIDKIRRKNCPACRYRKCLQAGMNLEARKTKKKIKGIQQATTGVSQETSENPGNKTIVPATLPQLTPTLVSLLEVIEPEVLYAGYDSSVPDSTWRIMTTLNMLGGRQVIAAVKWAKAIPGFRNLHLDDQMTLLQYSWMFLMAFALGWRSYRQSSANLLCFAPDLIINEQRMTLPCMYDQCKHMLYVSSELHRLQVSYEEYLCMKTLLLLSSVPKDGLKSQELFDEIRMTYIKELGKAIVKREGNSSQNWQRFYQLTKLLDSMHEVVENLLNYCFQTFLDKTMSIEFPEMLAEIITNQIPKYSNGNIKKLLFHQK
Test: GR functional assay using SW1353/MMTV-5 cells (MMTV-luciferase reporter)
pKi: −log10 of the molar value.
// pKi lookup, one value per entry

Consider the reported pKi for these compounds:
| compound | systemTested | pKi |
| --- | --- | --- |
| COC[C@]12Cc3cnn(-c4ccc(F)cc4)c3C=C1CCN(S(=O)(=O)c1cncc(N3CC(F)C3)c1)C2 | glucocorticoid receptors (GR) in SW1353/MMTV-5 cells (Homo sapiens, UniProt P04150) | > 8.00 |
| Cc1cc(COC(=O)[C@]23Cc4cnn(-c5ccc(F)cc5)c4C=C2CCN(S(=O)(=O)c2ccc(N4CC[C@@H](F)C4)nc2)C3)no1 | glucocorticoid receptors (GR) in SW1353/MMTV-5 cells (Homo sapiens, UniProt P04150) | 7.30 to 8.00 |
| O=S(=O)(c1ccc(N2CC[C@H](O)C2)nc1)N1CCC2=Cc3c(cnn3-c3ccc(F)cc3)C[C@]2(COCC2CC2)C1 | glucocorticoid receptors (GR) in SW1353/MMTV-5 cells (Homo sapiens, UniProt P04150) | 7.30 to 8.00 |
| CC(C)OC(=O)[C@]12Cc3cnn(-c4ccc(F)cc4)c3C=C1CCN(S(=O)(=O)c1ccc(N3CCOCC3)nc1)C2 | glucocorticoid receptors (GR) in SW1353/MMTV-5 cells (Homo sapiens, UniProt P04150) | 7.30 to 8.00 |
| O=C(OCC1CC(O)C1)[C@]12Cc3cnn(-c4ccc(F)cc4)c3C=C1CCN(S(=O)(=O)c1ccc(N3CC[C@@H](F)C3)nc1)C2 (some centres unmarked) | glucocorticoid receptors (GR) in SW1353/MMTV-5 cells (Homo sapiens, UniProt P04150) | 7.30 to 8.00 |

compound COC[C@]12Cc3cnn(-c4ccc(F)cc4)c3C=C1CCN(S(=O)(=O)c1ccnc(N3CCCC3)c1)C2 , pKi observed: > 8.00

Entry COC[C@]12Cc3cnn(-c4ccc(F)cc4)c3C=C1CCN(S(=O)(=O)c1cncc(N3CC[C@H](O)C3)c1)C2 — recorded pKi = < 7.30

Form: compound = CCOC[C@]12Cc3cnn(-c4ccc(F)cc4)c3C=C1CCN(S(=O)(=O)c1ccc(N3CCC3)nc1)C2 ; pKi = 7.30 to 8.00

Recorded pKi (compound COC[C@]12Cc3cnn(-c4ccc(F)cc4)c3C=C1CCN(S(=O)(=O)c1cncc(N3CC[C@H](F)C3)c1)C2 ): > 8.00

Looking up Cc1cc(COC(=O)[C@]23Cc4cnn(-c5ccc(F)cc5)c4C=C2CCN(S(=O)(=O)c2ccc(N4CCOCC4)nc2)C3)no1 , I found its pKi recorded as 7.30 to 8.00

Notebook: COC[C@]12Cc3cnn(-c4ccc(F)cc4)c3C=C1CCN(S(=O)(=O)c1ccc(N3C[C@@H]4C[C@H]3CO4)nc1)C2 , pKi read as < 7.30
